- System: Vero cells
- Assay Conditions: minimum cytotoxic concentration, microscopically detectable alteration of cell morphology
// reported Cytotoxicity Cell Morphology (MCC) for each item listed

## Input Report Cytotoxicity Cell Morphology (MCC) for CCC(CC)COC(=O)[C@H](C)N[P@](=O)(OC[C@H]1O[C@@](C#N)(c2ccc3c(N)ncnn23)[C@H](O)[C@@H]1O)Oc1ccccc1 [Remdesivir, reference compound] please.
## Output ≥40 μM

## Input Report Cytotoxicity Cell Morphology (MCC) for COc1ccc(C(OC[C@H]2O[C@@H](n3ccc4nc5cc(OC)ccc5n4c3=O)[C@H](O)[C@@H]2O)(c2ccccc2)c2ccc(OC)cc2)cc1 please.
## Output >100 μM

## Input Report Cytotoxicity Cell Morphology (MCC) for COc1ccc(C(OC[C@H]2O[C@@H](n3ccc4nc5cc(OC)ccc5n4c3=O)C[C@@H]2O)(c2ccccc2)c2ccc(OC)cc2)cc1 please.
## Output >100 μM

## Input Report Cytotoxicity Cell Morphology (MCC) for CC(C)C(=O)OC[C@H]1O[C@@H](n2ccc(NO)nc2=O)[C@H](O)[C@@H]1O please.
## Output >100 μM

New cases:
## Input Report Cytotoxicity Cell Morphology (MCC) for COc1ccc(C(OC[C@H]2O[C@@H](n3ccc(N)nc3=O)C[C@@H]2O)(c2ccccc2)c2ccc(OC)cc2)cc1 please.
## Output >100 μM

###

// reported Cytotoxicity Cell Morphology (MCC) for each item listed
- Tested on: HEL299 cells
- Assay Conditions: minimum cytotoxic concentration, microscopically detectable alteration of cell morphology

Observe how each entry below is paired with its result.
## Input Report Cytotoxicity Cell Morphology (MCC) for O=c1[nH]c(=O)n([C@H]2C[C@H](O)[C@@H](CO)O2)cc1/C=C/Br [Brivudine, reference compound] please.
## Output >100 μM

## Input Report Cytotoxicity Cell Morphology (MCC) for COc1ccc(C(OC[C@H]2O[C@@H](n3ccc4nc5cc(OC)ccc5n4c3=O)[C@H](O)[C@@H]2O)(c2ccccc2)c2ccc(OC)cc2)cc1 please.
## Output ≥100 μM

## Input Report Cytotoxicity Cell Morphology (MCC) for COc1ccc(C(OC[C@H]2O[C@@H](n3ccc(N)nc3=O)[C@H](O)[C@@H]2O)(c2ccccc2)c2ccc(OC)cc2)cc1 please.
## Output ≥20 μM

Would you kindly look at the next entry?
## Input Report Cytotoxicity Cell Morphology (MCC) for Nc1nc2c(ncn2COCCO)c(=O)[nH]1 [Aciclovir, reference compound] please.
## Output >100 μM
